Recorded values, source DBAASP.

The molecules listed here are annotated with their MIC.
- Test system: Staphylococcus epidermidis ATCC 12228
Give the value in µM but do not write µM after it.

Here is how some molecules turned out for MIC.
MOLECULE | MIC (µM)
CC[C@H](C)[C@H](NC(=O)[C@H](Cc1c[nH]c2ccccc12)NC(=O)[C@H](CCCCN)NC(=O)[C@H](Cc1c[nH]c2ccccc12)NC(=O)[C@@H](NC(=O)[C@H](Cc1c[nH]c2ccccc12)NC(=O)CNC(=O)[C@@H](NC(=O)[C@H](CCCCN)NC(=O)[C@H](CCCCN)NC(=O)[C@H](Cc1c[nH]c2ccccc12)NC(=O)[C@@H](N)CCCN=C(N)N)[C@@H](C)CC)C(C)C)C(N)=O [RWKKIGWVWKWI] | 4
CC[C@H](C)[C@H](NC(=O)CN)C(=O)N[C@@H](Cc1ccccc1)C(=O)N[C@@H](CO)C(=O)N[C@@H](CCCCN)C(=O)N[C@@H](CC(C)C)C(=O)N[C@@H](C)C(=O)NCC(=O)N[C@@H](CCCCN)C(=O)N[C@@H](CCCCN)C(=O)N[C@H](C(=O)N[C@@H](CCCCN)C(=O)N[C@@H](CC(N)=O)C(=O)N[C@@H](CC(C)C)C(=O)N[C@@H](CC(C)C)C(=O)N[C@H](C(=O)N[C@@H](CO)C(=O)NCC(=O)N[C@@H](CC(C)C)C(=O)N[C@@H](CCCCN)C(=O)NCC(N)=O)[C@@H](C)CC)[C@@H](C)CC [GIFSKLAGKKIKNLLISGLKG] | 3.12
CC[C@H](C)[C@H](NC(=O)[C@H](CC(C)C)NC(=O)CNC(=O)[C@H](CCCCN)NC(=O)[C@@H](NC(=O)[C@H](CC(C)C)NC(=O)[C@H](CCCCN)NC(=O)[C@@H]1CCCN1C(=O)[C@@H](NC(=O)[C@H](CC(C)C)NC(=O)[C@H](CCCCN)NC(=O)[C@H](Cc1ccccc1)NC(=O)[C@@H](N)Cc1ccccc1)[C@@H](C)CC)C(C)C)C(=O)N[C@@H](CO)C(=O)N[C@@H](C)C(=O)N[C@@H](Cc1ccccc1)C(=O)N[C@@H](CCCCN)C(N)=O [FFKLIPKLVKGLISAFK] | 9.38

Task item: Given the molecule CC[C@H](C)[C@H](NC(=O)[C@H](CCCN=C(N)N)NC(=O)[C@@H](N)Cc1ccccc1)C(=O)N[C@@H](CCCN=C(N)N)C(=O)N[C@H](C(=O)N[C@@H](CCCN=C(N)N)C(=O)N[C@H](C(N)=O)C(C)C)C(C)C [FRIRVRV] , what is its reported MIC?
Reply: 32
